# tested-target: APJ receptor (Homo sapiens (Human), UniProt P35414)
# Sequence (P35414 whole entry): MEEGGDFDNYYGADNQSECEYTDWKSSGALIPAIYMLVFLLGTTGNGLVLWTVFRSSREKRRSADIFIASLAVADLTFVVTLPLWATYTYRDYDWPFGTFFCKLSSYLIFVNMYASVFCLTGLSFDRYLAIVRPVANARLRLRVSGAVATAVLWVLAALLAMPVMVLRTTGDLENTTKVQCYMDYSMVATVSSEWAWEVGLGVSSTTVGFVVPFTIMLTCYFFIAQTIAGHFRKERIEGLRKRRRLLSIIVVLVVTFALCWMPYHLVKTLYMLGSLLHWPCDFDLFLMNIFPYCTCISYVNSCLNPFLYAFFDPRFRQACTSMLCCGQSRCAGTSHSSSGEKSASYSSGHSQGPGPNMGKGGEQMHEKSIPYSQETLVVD
# experiment-notes: [35S]GTPγS binding assay on membranes from CHO cells stably expressing human APJ receptor
# condition: membranes of CHO cells stably expressing human APJ receptor, means of several independent experiments, read-out: Activity hAPJ SPA EC50 IP
assay-metric: EC50 (nM)

Record excerpt, results attached:
COc1cccc(OC)c1-n1c(NS(=O)(=O)[C@H]2C[C@@H](O)CN(c3cncc(C#N)n3)C2)nnc1-c1ccc(C)o1 (single isomer, unassigned) [Example 321.0]
0.18
COC[C@H]1CCCC(=O)N1C[C@@H](C)S(=O)(=O)Nc1nnc(-c2ccc(C)o2)n1-c1c(OC)cccc1OC (single isomer, unassigned) [Example 150.0]
0.22

(A) COc1cccc(OC)c1-n1c(NS(=O)(=O)[C@@H](C)[C@H](O)c2cn3ccccc3n2)nnc1-c1ccc(C)o1 (single isomer, unassigned) [Example 265.0]
(B) COc1cccc(OC)c1-n1c(NS(=O)(=O)[C@H]2C[C@@H](O)CN(C(=O)N(C)C)C2)nnc1-c1ccc(C)o1 (single isomer, unassigned) [Example 337.0]
(C) COCC[C@@H]([C@H](C)c1ncc(F)cn1)S(=O)(=O)Nc1nnc(-c2ccc(C)o2)n1-c1c(OC)cccc1OC (racemic) [Example 74.0]
(Q) Ascending by EC50, please. Answer format: the labels, in the requested order.
(A) A, C, B

Source of measurements: patent US10736883B2
